- Test system: ARP-1
- protocol.description: Cell killing with drug-conjugated 2° antibody (internalization), ARP-1
- Type: cell-based, human
- condition.details: Conjugate P 2° antibody 20 nM, 72 hrs
Measured Span (%), listed per entry for reference.
quantity.name: Span (%)

molecule	obs.value
11D6: chicken antibody, VH SEQ ID NO 198, VL SEQ ID NO 220 (antibody, V domains shown, Synthetic 11D6, VH; Synthetic 11D6, VL) VH: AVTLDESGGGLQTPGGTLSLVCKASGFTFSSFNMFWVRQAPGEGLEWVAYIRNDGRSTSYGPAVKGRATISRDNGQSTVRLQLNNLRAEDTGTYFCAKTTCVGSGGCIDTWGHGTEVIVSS VL: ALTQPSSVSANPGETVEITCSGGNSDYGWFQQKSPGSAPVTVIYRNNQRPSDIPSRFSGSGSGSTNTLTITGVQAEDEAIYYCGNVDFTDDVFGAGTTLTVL	83%
9E12: chicken antibody, VH SEQ ID NO 209, VL SEQ ID NO 231 (antibody, V domains shown, Synthetic 9E12, VH; Synthetic 9E12, VL) VH: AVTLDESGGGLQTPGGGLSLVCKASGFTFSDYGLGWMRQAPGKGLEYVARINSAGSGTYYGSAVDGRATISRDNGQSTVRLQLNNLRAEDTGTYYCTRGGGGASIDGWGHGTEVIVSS VL: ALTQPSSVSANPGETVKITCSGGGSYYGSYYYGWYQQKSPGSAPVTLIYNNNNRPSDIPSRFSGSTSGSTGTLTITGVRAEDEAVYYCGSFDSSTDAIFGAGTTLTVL	80%
